Data origin, for the record: patent US20240116985A1

# PROTOCOL_SUMMARY: Solubility in PBS
# Assay type: physicochemical
Give measured Solubility for each item. Keep answers brief.
Answers are plain numbers, in µM.

CC(=O)N1CCC[C@]12CC=CCCCC1(CCCC=CCCCOC(=O)N3CC[C@@](C(=O)N[C@@H](Cc4ccccc4)C(=O)N[C@@H](Cc4csc5ccccc45)C(=O)N[C@@H](Cc4c[nH]cn4)C(N)=O)(C3)NC(=O)[C@H](CC(N)=O)NC(=O)[C@H](Cc3ccccc3)NC(=O)[C@H](C)NC(=O)[C@H](C)NC(=O)[C@H](CCC(=O)O)NC(=O)[C@H](CC(=O)O)NC1=O)NC(=O)[C@H](CC(C)(C)C)NC(=O)[C@H](CC(=O)O)NC2=O (some centres unmarked) [I-693] :: 34

Please supply Solubility for each of the following items, keeping them in order.
1. CC(=O)N1CCC[C@]12CC=CCCCC1(CCCC=CCOC(=O)N(C)CCC[C@@](C)(C(=O)N[C@@H](Cc3ccsc3)C(=O)N[C@@H](Cc3csc4ccccc34)C(=O)N[C@@H](Cc3c[nH]cn3)C(N)=O)NC(=O)[C@H](CC(N)=O)NC(=O)[C@H](Cc3ccccc3)NC(=O)[C@H](C)NC(=O)[C@H](C)NC(=O)[C@H](CC(=O)O)NC(=O)[C@H](CC(=O)O)NC1=O)NC(=O)[C@H](CC(C)(C)C)NC(=O)[C@H](CC(=O)O)NC2=O (some centres unmarked) [I-773]
2. CC(=O)N1CCC[C@]12CC=CCCCC1(CCCC=CCCCCCC[C@@](C)(C(=O)N[C@@H](Cc3ccccc3)C(=O)N[C@@H](Cc3csc4ccccc34)C(=O)N[C@@H](CCC(N)=O)C(N)=O)NC(=O)[C@H](CC(N)=O)NC(=O)[C@H](Cc3ccccc3)NC(=O)[C@H](C)NC(=O)[C@H](C)NC(=O)[C@H](Cc3nn[nH]n3)NC(=O)[C@H](CC(=O)O)NC1=O)NC(=O)[C@H](C)NC(=O)[C@H](CC(=O)O)NC2=O (some centres unmarked)
3. CC(=O)N1CCC[C@]12CC=CCCCC1(CCCC=CCCCCCC[C@@](C)(C(=O)N[C@@H](Cc3ccccc3)C(=O)N[C@@H](Cc3csc4ccccc34)C(=O)N[C@H](Cc3c[nH]cn3)C(N)=O)NC(=O)[C@H](CC(N)=O)NC(=O)[C@H](Cc3ccccc3)NC(=O)[C@H](C)NC(=O)[C@H](C)NC(=O)[C@H](CCC(=O)O)NC(=O)[C@H](CC(=O)O)NC1=O)NC(=O)[C@H](CC(C)C)NC(=O)[C@H](CC(=O)O)NC2=O (some centres unmarked)

1: 47; 2: 50; 3: 10

For the compound shown here, CC(=O)N1CCC[C@]12CC=CCCCC1(CCCC=CCCCCOC(=O)N3CC[C@@](C(=O)N[C@@H](Cc4ccsc4)C(=O)N[C@@H](Cc4csc5ccccc45)C(=O)N[C@@H](CCC(N)=O)C(=O)N[C@H](C)C(N)=O)(C3)NC(=O)[C@H](CC(N)=O)NC(=O)[C@H](Cc3ccccc3)NC(=O)[C@H](C)NC(=O)[C@H](C)NC(=O)[C@H](CC(=O)O)NC(=O)[C@H](CC(=O)O)NC1=O)NC(=O)[C@H](CC(C)(C)C)NC(=O)[C@H](CC(=O)O)NC2=O (some centres unmarked) , give the reported Solubility.
50

----------
# TESTED_TARGET: full-length beta-Catenin (Uniprot ID P35222) (Homo sapiens)
# Construct: 10 nM full-length beta-Catenin (Uniprot ID P35222)
# Sequence (P35222 1-781): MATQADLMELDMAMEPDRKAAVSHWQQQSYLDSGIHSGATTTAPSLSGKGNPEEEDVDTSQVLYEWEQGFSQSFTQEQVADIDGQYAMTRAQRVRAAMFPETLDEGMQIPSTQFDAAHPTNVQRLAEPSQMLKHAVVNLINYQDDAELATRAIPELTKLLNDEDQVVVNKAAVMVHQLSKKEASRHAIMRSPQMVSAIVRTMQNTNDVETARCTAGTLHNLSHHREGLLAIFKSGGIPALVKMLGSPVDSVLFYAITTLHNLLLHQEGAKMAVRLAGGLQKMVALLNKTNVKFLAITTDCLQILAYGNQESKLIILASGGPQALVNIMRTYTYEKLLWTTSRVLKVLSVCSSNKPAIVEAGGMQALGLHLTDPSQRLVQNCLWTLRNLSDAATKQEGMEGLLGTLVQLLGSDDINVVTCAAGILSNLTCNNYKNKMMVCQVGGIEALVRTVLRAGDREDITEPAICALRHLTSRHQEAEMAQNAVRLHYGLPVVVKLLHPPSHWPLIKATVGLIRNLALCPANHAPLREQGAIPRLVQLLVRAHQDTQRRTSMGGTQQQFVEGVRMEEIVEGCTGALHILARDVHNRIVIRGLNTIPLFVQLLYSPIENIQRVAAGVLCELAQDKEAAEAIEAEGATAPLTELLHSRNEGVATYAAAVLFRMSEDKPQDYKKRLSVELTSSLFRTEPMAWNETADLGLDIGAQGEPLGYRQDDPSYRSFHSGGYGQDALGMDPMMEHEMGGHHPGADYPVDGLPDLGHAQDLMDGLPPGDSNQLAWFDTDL
# PROTOCOL_SUMMARY: Fluorescence polarization IC50 (beta-catenin / 5FAM-TCF4 10-53 competition)
# Format: binding
# CONDITION_INFO: read-out: beta-Catenin FP IC50
Exercise: for every item that follows, state its recorded IC50.
Give bare numbers, in nM.

Some compounds with known IC50 results, for comparison:
CC(=O)N1CCC[C@]12CC=CCCCC1(CCCC=CCCCCCC[C@@](C)(C(=O)N[C@@H](Cc3ccccc3Cl)C(=O)N[C@@H](Cc3csc4ccccc34)C(=O)N[C@@H](CCC(N)=O)C(N)=O)NC(=O)[C@H](CO)NC(=O)[C@H](Cc3ccccc3)NC(=O)[C@H](C)NC(=O)[C@H](C)NC(=O)[C@H](CN(CC(=O)O)CC(F)(F)F)NC(=O)[C@H](CC(=O)O)NC1=O)NC(=O)[C@H](CC(C)(C)C)NC(=O)[C@H](CC(=O)O)NC2=O (some centres unmarked) [I-995] :: 55
CCN(CC(=O)O)C[C@@H]1NC(=O)[C@H](CC(=O)O)NC(=O)C2(CCCC=CCCCOC(=O)N3CC[C@@](C(=O)N[C@@H](Cc4ccsc4)C(=O)N[C@@H](Cc4csc5ccccc45)C(=O)N[C@@H](CCC(N)=O)C(N)=O)(C3)NC(=O)[C@H]([C@@H](C)O)NC(=O)[C@H](Cc3ccccc3)NC(=O)[C@H](C)NC(=O)[C@H](C)NC1=O)CCCC=CC[C@]1(CCCN1C(C)=O)C(=O)N[C@@H](CC(=O)O)C(=O)N[C@@H](CC(C)(C)C)C(=O)N2 (some centres unmarked) [I-968] :: 2980
CC(=O)N1CCC[C@]12CC=CCCCC1(CCCC=CCCCOC(=O)N3CC[C@@](C(=O)N[C@@H](Cc4ccsc4)C(=O)N[C@@H](Cc4csc5ccccc45)C(=O)N[C@@H](CCC(N)=O)C(=O)N[C@@H](CCCCNC(=O)C(C)(c4ccccc4)c4ccccc4)C(N)=O)(C3)NC(=O)[C@H](CC(N)=O)NC(=O)[C@H](Cc3ccccc3)NC(=O)[C@H](C)NC(=O)[C@H](C)NC(=O)[C@H](CC(=O)O)NC(=O)[C@H](CC(=O)O)NC1=O)NC(=O)[C@H](CC(C)(C)C)NC(=O)[C@H](CC(=O)O)NC2=O (some centres unmarked) [I-904] :: 54
CC(=O)N1CCC[C@]12CC=CCCCC1(CCCC=CCCCOC(=O)N3CC[C@@](C(=O)N[C@@H](Cc4ccsc4)C(=O)N[C@@H](Cc4csc5ccccc45)C(=O)N[C@@H](Cc4c[nH]cn4)C(N)=O)(C3)NC(=O)[C@H](CC(N)=O)NC(=O)[C@H](Cc3ccccc3)NC(=O)[C@H](C)NC(=O)[C@H](C)NC(=O)[C@H](CC(=O)O)NC(=O)[C@H](CC(=O)O)NC1=O)NC(=O)[C@H](CCC(C)C)NC(=O)[C@H](CC(=O)O)NC2=O (some centres unmarked) [I-788] :: 5

Now look at this entry.
Entry CC(=O)N1CCC[C@]12CC=CCCCC1(CCCC=CCCCOC(=O)N3CC[C@@](C(=O)N[C@@H](Cc4ccsc4)C(=O)N[C@@H](Cc4c[nH]c5ccccc45)C(=O)N[C@@H](Cc4c[nH]cn4)C(N)=O)(C3)NC(=O)[C@H](CC(N)=O)NC(=O)[C@H](Cc3ccccc3)NC(=O)[C@H](C)NC(=O)[C@H](C)NC(=O)[C@H](CC(=O)O)NC(=O)[C@H](CC(=O)O)NC1=O)NC(=O)[C@H](CC(C)(C)C)NC(=O)[C@H](CC(=O)O)NC2=O (some centres unmarked) [I-792] : reported IC50 = ?
20

----------
# TESTED_TARGET: full-length beta-Catenin (Uniprot ID P35222) (Homo sapiens, UniProt P35222)
# Construct: 10 nM full-length beta-Catenin (Uniprot ID P35222)
# PROTOCOL_SUMMARY: Fluorescence polarization IC50 (beta-catenin / 5FAM-TCF4 10-53 competition)
# Assay type: binding
# CONDITION_INFO: fluorescence polarization; read-out: beta-Catenin FP IC50
pIC50: −log10 of the molar value.
Hi, to clarify the labels: 1.0 covers pIC50 from 7 upward, 0.0 covers anything below 7.

CC[C@H](C)[C@@H]1NC(=O)[C@H](CC(=O)O)NC(=O)[C@]2(CC=CCCCC3(CCCC=CCCCCCC[C@@](C)(C(=O)N[C@@H](Cc4ccccc4)C(=O)N[C@@H](Cc4csc5ccccc45)C(=O)N[C@@H](CCC(N)=O)C(N)=O)NC(=O)[C@H](CCC(N)=O)NC(=O)[C@H](Cc4ccccc4)NC(=O)[C@H](C)NC(=O)[C@H](C)NC(=O)[C@H](CCCNC(=N)N)NC(=O)[C@H](CC(=O)O)NC3=O)NC1=O)CCCN2C(C)=O (some centres unmarked) [I-613] :: 0.0
CC(=O)N1CCC[C@]12CC=CCCCC1(CCCC=CCCCOC(=O)N3CC[C@@](C(=O)N[C@@H](Cc4ccsc4)C(=O)N[C@@H](Cc4csc5ccccc45)C(=O)N[C@@H](CC(N)=O)C(=O)N[C@@H](C)C(=O)NC(C)(C)C(=O)N[C@@H](C)C(N)=O)(C3)NC(=O)[C@H](CC(C)C)NC(=O)[C@H](Cc3ccccc3)NC(=O)[C@H](C)NC(=O)[C@H](C)NC(=O)[C@H](Cc3cccc(C(=O)O)c3)NC(=O)[C@H](CC(=O)O)NC1=O)NC(=O)[C@H](CC(C)(C)C)NC(=O)[C@H](CC(=O)O)NC2=O (some centres unmarked) :: 1.0
CC(=O)N1CCC[C@]12CC=CCCCC1(CCCC=CCCCOC(=O)N3CC[C@@](C(=O)N[C@@H](Cc4ccsc4)C(=O)N[C@@H](Cc4csc5ccccc45)C(=O)N[C@@H](CCC(N)=O)C(N)=O)(C3)NC(=O)[C@H](CC(C)C)NC(=O)[C@H](Cn3cc(CN4CCOCC4)nn3)NC(=O)[C@H](C)NC(=O)[C@H](C)NC(=O)[C@H](CN(CC(=O)O)CC(F)(F)F)NC(=O)[C@H](CC(=O)O)NC1=O)NC(=O)[C@H](CC(C)(C)C)NC(=O)[C@H](CC(=O)O)NC2=O (some centres unmarked) [I-1858] :: 0.0

From here, focus on the item given below.
Check the entry CC(=O)N1CCC[C@]12CC=CCCCC1(CCCC=CCCCOC(=O)N3CC(C(=O)N[C@@H](Cc4ccccc4C(F)(F)F)C(=O)N[C@@H](Cc4csc5ccccc45)C(=O)N[C@@H](CCC(N)=O)C(N)=O)(C3)NC(=O)[C@H](CC(C)C)NC(=O)[C@H](Cc3ccccc3)NC(=O)[C@H](C)NC(=O)[C@H](C)NC(=O)[C@H](Cc3cccc(C(=O)O)c3)NC(=O)[C@H](CC(=O)O)NC1=O)NC(=O)[C@H](CC(C)(C)C)NC(=O)[C@H](CC(=O)O)NC2=O (some centres unmarked) : does pIC50 equal or exceed 7?
0.0
